# experiment_summary: protein stability index of a GFP-peptide fusion (yeast GPS) (PSI 1-4); higher = more stable; sorted into four equal gates, so the index is relative within each strain
# test_parameters: san1∆
measure: protein stability index

KLSESLDTRKELWRKEQ [SMC3] ... 3.19
FDEGTTLLSPKDNGMLI [RPO21] ... 2.91
AVSKDPLLTKRKDLRDK [DIS3] ... 2.78
EGNAGGDQKTSENRNNI [YOR098C/NUP1] ... 3.19
SGEDVIIGKTTPISPDE [RPB2] ... 3.49
KQVQDFEENDHPNRVLE [COR1] ... 3.19
DSIGSTRVEGSGGGDSE [RPT6] ... 3.1
TTGSIFEKDLMAYFDEN [BRN1] ... 3.17

* * *

# experiment_summary: protein stability index of a GFP-peptide fusion (yeast GPS) (PSI 1-4); higher = more stable; sorted into four equal gates, so the index is relative within each strain
# test_parameters: doa10∆
measure: protein stability index

CFSQENIEEMARVILYL [SIN4] ... 2.47
RAKALGIKVTNPKGRLA [RPL32] ... 3.62
ILNLLNILTTHLSHPGT [ECM29] ... 2.03
KLLKSLKNTKYFQQTTI [PRP8] ... 2.12
VYLSLLDKDSSQSSAAA [RPN6] ... 3
LSLMLESPNYCNALIHI [SRB4] ... 1.52
IRAGEFDVVLTTFEYII [SNF2] ... 2.31
IDGKVIQAGKFDNKSTS [SNF2] ... 1.36
PEGLLKSLWDYVKKNTE [TAF14] ... 3.01
AAEFRYKYGYDMPCDVL [SCL1] ... 2.64
RTHFKRMRFPPFDDDEP [PRP8] ... 2.65
PESIDTILSSKLSNIWM [SRB2] ... 2.72
EAFNDGNENFEDFDVEH [RPO26] ... 2.97
IFINYKQTADWLAEKFQ [PRP28] ... 1.7
LHNIWSNGLLSIVLLLL [YML103C/NUP188] ... 1.38
NAEATKEEFSSAENRDE [CSE2] ... 3.14
APRQEISEEETTVKPLF [YAR002W/NUP60] ... 3.22
TDGVIGSRTTTNHVLEV [RPO31] ... 3.17
STSGDPSEFHCLQDALD [SSN2] ... 3.07
DDNDVPGPLPDTDSKPS [YLR018C/POM34] ... 2.9
NVLLLDSNGDFNEDQLF [RRP46] ... 3.17
SYTDAQDKSKKIMNVTT [YMR129W/POM152] ... 2.97
GAIIGWTRGTGLMSANN [FAS2] ... 2.89
VDVELITSINVENDTFI [FAS2] ... 3.4
NLEFNYTKPYPNFEASF [SMC2] ... 2.76
ARVLFDDMVEYEDGTPA [CYT1] ... 3.47
KKYSSKNKYGEINSEDY [SRP68] ... 3.22
NSTHLLPLQPIEIDYTV [SNF12] ... 2.34
LVSSASQQLLEILVTEL [RPN2] ... 1.93
KIPAVEYFGGESPVDVQ [FAS1] ... 2.97
YLAKLSKQLSLEEKKKR [IRR1] ... 2.65
LNDLVESSFIEIDDTEA [BRR2] ... 2.9
TQYKAGKASLFAQGKRR [RPL42A] ... 3.35
EIEVDEMEVDAEGEEVE [RPN1] ... 3.52
QAISYLHKLQRMRLRAL [GRR1] ... 1.77
VSPTVGKLFSDIKVLKR [YIL149C/MLP2] ... 2.96
ENALIELKNELAKTKEN [YIL149C/MLP2] ... 2.82
TRDVEPENLQVTSEKYP [BRR2] ... 2.75
PDGSFEDWSVEELIVDL [RPO26] ... 3.42
APTPAAPGASVPATAAP [SWI1] ... 2.93
AAAFSQQQNASSKLYQM [GAL11] ... 2.71
TPAEMSRPATTTRNGFM [FAS2] ... 2.35
ALSGLYYKNFHNSVKRY [SNM1] ... 1.59
VRIPPDQFHRDTISAIT [RPC25] ... 1.91
KIESLAGGGESDSALIL [UBP6] ... 3.25
TPFSFGTANNNSNTTNQ [YJL041W/NSP1] ... 3.25
NKLDEYHGLYTNYEMSY [LIN1] ... 1.56
KSDSQYRFYEYIYSQET [MED1] ... 2.81
MLGEDEGNTVLEKGNNP [SWP82] ... 3.67
LRLLEVTDDDRLWLKKV [POP8] ... 1.36
SIAAERYDYSDEVGRRS [YCG1] ... 3
YMHDTELNYFVGCKNLE [GRR1] ... 2.92
QNLRKELLIYKKSQCKK [YIL149C/MLP2] ... 1.75
NNYDDFMLSDDEGMESI [RRI2] ... 2.54
KEHEPCIIFMDEVDAIG [RPT4] ... 1.85
DIEIVRVNKNAPAVELH [FAS2] ... 2.87
TEKEEAVAKAAEKKVVR [RPL17A] ... 3.44
EDPVTVEYLTRYVAGVQ [PRE6] ... 2.39
QQQGQIPQSQQVPQVRS [SNF5] ... 2.37
AALFRLHKFLTKWGLIN [SWI3] ... 2.83

* * *

# experiment_summary: protein stability index of a GFP-peptide fusion (yeast GPS) (PSI 1-4); higher = more stable; sorted into four equal gates, so the index is relative within each strain
# test_parameters: doa10∆
measure: protein stability index

KIWSVKDGSNPRTLIGH [RPN14] ... 3.12
KATLELLKLIEPYVAYG [RPL7A] ... 2.28
KLCYVLGVEDITLIDSA [RET1] ... 1.58
TASFIPLDTIETELPTL [SMC1] ... 2.58
RVIIQELRFPSPTPIQR [PRP28] ... 2.57
ERNASEVRDATLNNIFR [GRR1] ... 3.36
STKELKFSDIIQGISKM [BRN1] ... 3.16
KSLDAETEAEEDHMLKK [RPO21] ... 3.15

* * *

# experiment_summary: protein stability index of a GFP-peptide fusion (yeast GPS) (PSI 1-4); higher = more stable; sorted into four equal gates, so the index is relative within each strain
# test_parameters: ubr1∆
Returns rule met if the recorded protein stability index is greater than or equal to 3, and rule not met otherwise.

ALFVFYSPNTLGHPDNY [COB] ... rule not met
SEENIGSGLLKLSEIIL [SWI1] ... rule met
TASFIPLDTIETELPTL [SMC1] ... rule not met
IRNEGSDAEEEEGEYKN [ISW2] ... rule met
IKIEPSADDDVNNGNIP [SIR3] ... rule not met
IAVLRSKEWFQLDDEDF [FAS1] ... rule not met
CRNILGVTSLIKNLGLP [RPP1] ... rule not met
TQAKRIFLQQFLQELLK [SWI1] ... rule not met
LSLMLESPNYCNALIHI [SRB4] ... rule not met
DNSVEQGRRLGESIMSE [MCD1] ... rule met
GRTGNGNMGITTEMLDK [MED6] ... rule met
GHDADDGYQLFHAEPSG [PUP2] ... rule met

* * *

# experiment_summary: protein stability index of a GFP-peptide fusion (yeast GPS) (PSI 1-4); higher = more stable; sorted into four equal gates, so the index is relative within each strain
# test_parameters: san1∆
Returns true (1) if the recorded protein stability index is greater than or equal to 3, and false (0) otherwise.

AAEPMDSKMIQDLSRNT [SNU114] ... true (1)
GRVYRPLFIVEDDESLG [RPB2] ... false (0)
ISSLGYRSHIFATNEER [SWI3] ... false (0)
NIKSNDFSIRKTCAKSV [ECM29] ... false (0)
LTYAQQQLNKQRQDFER [SNF6] ... false (0)
LFLIIQCYKIYDLVILK [YMR129W/POM152] ... false (0)
RGKNEIIQNAQRDAVTL [RPO21] ... true (1)
ATPSAKEASQEDDNNNV [YLR335W/NUP2] ... false (0)
AKNKSTRINGLNSNNSI [REC8] ... true (1)
LGNIASSFYINHASMDV [BRR2] ... false (0)
ASVTKEILGTAQSVGCR [RPL12A] ... false (0)
KFQETLLRQKIEQCKHP [ISW2] ... false (0)
EGNQGSLQEDVSFDFNG [MED8] ... true (1)
NLLKVSVDICNNSKSRY [ECM29] ... false (0)
NLSSNVNFTEIGGLIPQ [YCS4] ... false (0)
SKNSKLSIICVGGHNVT [SIR3] ... false (0)
TQAKRIFLQQFLQELLK [SWI1] ... false (0)
FNTFWDEKGNEIKVGKQ [ARP9] ... false (0)
AAAGGDAAAEEEKEEEA [RPP1B] ... true (1)
EEAGSPLVYRHELITNI [RPB9] ... true (1)
SIVTVVSSAKFSGKYLK [RPL22B] ... false (0)
GNAKESKALLREISNFS [SRP72] ... false (0)
NLEFNYTKPYPNFEASF [SMC2] ... false (0)
YMEQGNNKIITLVKGPK [SKI6] ... false (0)
DDKVSVVEKEKIESLAG [UBP6] ... false (0)
DEGLLNMVSLRGRNDTL [GRR1] ... false (0)
CFSQENIEEMARVILYL [SIN4] ... false (0)
DELILPLPSHALTVQEV [YDL116W/NUP84] ... false (0)
VSLSQLLFIVGQVAIKT [YCS4] ... false (0)
SLLDKPDEAIEKVFNAY [FAS1] ... true (1)
DFVRNELNDIDTKIDQV [SMC3] ... true (1)
KISEGSAKPTFSFSKSE [YOR098C/NUP1] ... false (0)
QSVYNDEKLKTEKLKND [SRB8] ... true (1)
LNRSHFATTKAECISLI [ECM29] ... false (0)
FVRGDSKIFRFQNSKSA [RPL24A] ... false (0)
SPTESYSDIGGLESQIQ [RPT2] ... true (1)
HIQGFPTLGERLDNLQD [DSN1] ... true (1)
FQYGSRLPTFLKHKSIC [RPP1] ... false (0)
ENLNRNWRGREHWKVRN [BRN1] ... true (1)
PNELSQILTVDPKTSLR [RPC82] ... false (0)
PSVAAEYVYFFNNTSVI [RPC40] ... false (0)
FEFGNMKATSNTLEEFE [FAS2] ... true (1)
SVKLKQKRLEAGALNLA [DIS3] ... true (1)
PEYAKVGDFLLQYANNA [SIN4] ... false (0)
QANQVKRHSYAQSSHIR [RPS1A] ... false (0)
GGTSDMNYLLDNKINEI [CSI1] ... true (1)
